- targetOfAssay: human integrin αvβ5 (Homo sapiens, UniProt P06756+P18084)
- Sequence (P06756 31-1048): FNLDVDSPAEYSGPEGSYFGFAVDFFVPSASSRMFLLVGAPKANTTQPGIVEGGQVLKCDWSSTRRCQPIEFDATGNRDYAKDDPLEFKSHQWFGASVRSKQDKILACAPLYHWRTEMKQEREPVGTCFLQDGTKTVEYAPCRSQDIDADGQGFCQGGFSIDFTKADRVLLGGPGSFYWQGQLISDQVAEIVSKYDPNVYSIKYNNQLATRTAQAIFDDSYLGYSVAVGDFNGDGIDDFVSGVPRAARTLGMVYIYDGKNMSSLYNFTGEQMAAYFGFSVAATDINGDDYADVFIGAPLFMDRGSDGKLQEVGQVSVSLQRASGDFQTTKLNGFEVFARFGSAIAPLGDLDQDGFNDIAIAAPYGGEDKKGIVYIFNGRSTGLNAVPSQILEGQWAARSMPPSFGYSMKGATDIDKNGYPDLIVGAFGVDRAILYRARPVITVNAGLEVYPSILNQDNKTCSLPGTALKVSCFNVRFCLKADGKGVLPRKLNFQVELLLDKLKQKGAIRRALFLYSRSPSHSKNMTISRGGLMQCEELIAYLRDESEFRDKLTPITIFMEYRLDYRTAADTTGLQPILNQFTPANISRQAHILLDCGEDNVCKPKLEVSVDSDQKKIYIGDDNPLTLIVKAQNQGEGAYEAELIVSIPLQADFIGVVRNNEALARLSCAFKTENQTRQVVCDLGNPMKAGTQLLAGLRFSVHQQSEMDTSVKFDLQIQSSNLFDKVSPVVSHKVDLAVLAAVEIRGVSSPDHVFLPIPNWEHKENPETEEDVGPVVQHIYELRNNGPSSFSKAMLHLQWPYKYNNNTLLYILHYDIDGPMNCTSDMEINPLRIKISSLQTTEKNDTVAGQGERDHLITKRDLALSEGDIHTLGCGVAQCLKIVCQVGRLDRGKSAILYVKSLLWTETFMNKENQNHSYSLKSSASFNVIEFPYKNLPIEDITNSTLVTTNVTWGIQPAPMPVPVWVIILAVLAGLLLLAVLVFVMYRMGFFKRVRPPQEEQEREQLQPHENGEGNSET
- Sequence (P18084 24-799): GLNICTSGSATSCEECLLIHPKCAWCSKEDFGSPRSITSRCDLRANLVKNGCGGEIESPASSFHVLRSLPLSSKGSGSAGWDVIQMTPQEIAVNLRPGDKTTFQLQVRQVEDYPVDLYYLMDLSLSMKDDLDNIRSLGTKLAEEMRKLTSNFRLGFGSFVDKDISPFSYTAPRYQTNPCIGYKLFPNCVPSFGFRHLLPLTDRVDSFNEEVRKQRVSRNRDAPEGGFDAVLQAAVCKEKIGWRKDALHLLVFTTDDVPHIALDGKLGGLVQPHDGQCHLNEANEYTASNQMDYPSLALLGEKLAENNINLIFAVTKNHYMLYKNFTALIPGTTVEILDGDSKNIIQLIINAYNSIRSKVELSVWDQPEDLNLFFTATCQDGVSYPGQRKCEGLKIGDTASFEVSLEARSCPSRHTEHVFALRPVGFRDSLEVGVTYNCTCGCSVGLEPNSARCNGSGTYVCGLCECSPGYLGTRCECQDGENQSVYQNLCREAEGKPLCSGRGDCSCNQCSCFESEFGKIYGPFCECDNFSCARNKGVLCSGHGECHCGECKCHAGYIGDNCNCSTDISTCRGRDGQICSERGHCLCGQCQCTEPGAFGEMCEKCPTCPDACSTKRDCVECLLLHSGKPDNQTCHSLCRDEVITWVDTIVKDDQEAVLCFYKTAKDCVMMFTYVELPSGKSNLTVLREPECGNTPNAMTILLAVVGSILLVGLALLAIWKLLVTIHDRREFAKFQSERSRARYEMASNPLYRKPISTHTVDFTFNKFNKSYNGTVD
- procedureDetails: Evaluation of integrin binding property (surface plasmon resonance, Biacore 3000, immobilized cyclic peptide)
- conditionSummary: SPR, 25° C., HEPES buffer with 5 mM magnesium chloride, integrin 30-1,000 nM; read-out: Performance evaluation: Binding activity (dissociation constant between the cyclic peptide and human integrin αvβ5)
Starred links: 1 amine or outer side, 2 acyl side, 3 side chain; linkers in the order of their positions; H or OH if unused. Positions of bridges follow the written chain, without caps; N, C: chain ends. Non-standard residues stand in square brackets, D forms with d. Residues, ends and D or L forms follow the SMILES beside them. hCys = N[C@@H](CCS)C(=O)O; Dab = NCC[C@H](N)C(=O)O; X2 = O=C(C[*:1])[*:2]
readoutKind: Kd

compound	Kd
CC[C@H](C)[C@@H]1NC(=O)[C@@H](NC(=O)[C@H](CCCCN)NC(=O)[C@H](CCCCN)NC(=O)[C@@H](N)CCCCN)CCSCC(=O)NCC[C@@H](C(=O)O)NC(=O)[C@H](Cc2ccccc2)NC(=O)[C@H](C(C)C)NC(=O)[C@H](CC(=O)O)NC(=O)CNC(=O)[C@H](CCCNC(=N)N)NC(=O)[C@@H]2CCCN2C1=O [Cyclic peptide 65, KKK-(Hcy)-IPRGDVF(Dab(acetyl))] (H-KKK[hCys]IPRGDVF[Dab]-OH; linker 4-12 via X2)	50 to 100 nM

# value of Kd, human integrin αvβ5 (Homo sapiens, UniProt P06756+P18084), item CC[C@H](C)[C@@H]1NC(=O)[C@@H](NC(=O)[C@H](C)NC(=O)[C@H](CCCCN)NC(=O)[C@H](CCCCN)NC(=O)[C@@H](N)CCCCN)CCSCC(=O)NCC[C@@H](C(=O)N[C@@H](C)C(=O)O)NC(=O)[C@H]([C@@H](C)O)NC(=O)[C@H](Cc2ccccc2)NC(=O)[C@H]([C@@H](C)O)NC(=O)[C@H](CC(=O)O)NC(=O)CNC(=O)[C@H](CCCNC(=N)N)NC(=O)[C@@H]2CCCN2C1=O [Cyclic peptide 82, KKKA-(Hcy)-IPRGDTFT(Dab(acetyl))A] (H-KKKA[hCys]IPRGDTFT[Dab]A-OH; linker 5-14 via X2) = 50 to 100 nM
